System: Priestia megaterium
Method Description: Antimicrobial activity against Bacillus megaterium ATCC 9885 after 24 hrs by two-fold serial dilution method
Format: functional
Condition Context: ATCC 9885, 24 h
Parameter: MIC (µg/mL)
Write the answer as a number in µg/mL, unit excluded.

Molecule: Cc1ccc(-n2nnc(C3=NN(C(N)=S)C(c4ccc(F)cc4)C3)c2C)cc1 (centres undefined)
Experimental Result: 132
--
Molecule: Cc1ccc(-n2nnc(C3=NNC(c4ccc(C#N)cc4)C3)c2C)cc1 (centres undefined)
Experimental Result: 33
--
Molecule: O=C(O)c1cn(C2CC2)c2cc(N3CCNCC3)c(F)cc2c1=O [CIPROFLOXACIN]
Experimental Result: 8.25
--
Molecule: Cc1ccc(-n2nnc(C3=NNC(c4ccccc4)C3)c2C)cc1 (centres undefined)
Experimental Result: 132
--
Molecule: Cc1ccc(-n2nnc(C3=NN(C4=NC(=O)CS4)C(c4ccc(F)cc4)C3)c2C)cc1 (centres undefined)
Experimental Result: 8.25

INPUT: Param readout = MIC; param system = Priestia megaterium; param query = Cc1ccc(-n2nnc(C3=NN(C(=S)Nc4ccccc4)C(c4ccccc4)C3)c2C)cc1 (centres undefined) ; response: value
OUTPUT: 8.25

INPUT: Give recorded MIC with Priestia megaterium for the following molecule: Cc1ccc(-n2nnc(C3=NN(c4nc(-c5ccccc5)cs4)C(c4ccc(F)cc4)C3)c2C)cc1 (centres undefined)
OUTPUT: 33

INPUT: // lookup MIC | system=Priestia megaterium | key= Cc1ccc(-n2nnc(C3=NNC(c4ccc(F)cc4)C3)c2C)cc1 (centres undefined)
OUTPUT: 132

INPUT: # get_value(readout= MIC, system= Priestia megaterium) for Cc1ccc(-n2nnc(C3=NN(C(=S)NC(=O)c4ccccc4)C(c4ccc(N5CCCCC5)cc4)C3)c2C)cc1 (centres undefined)
OUTPUT: 8.25

* * *

Tested on: Staphylococcus aureus
Method Description: Antimicrobial activity against Staphylococcus aureus ATCC 29213 after 24 hrs by two-fold serial dilution method
Assay type: functional
Condition Context: ATCC 29213, 24 h
Parameter: MIC (µg/mL)
Your answer is read as µg/mL, so omit the unit and give the number.

Please review the entries below; each comes with its answer.
Molecule: Cc1ccc(-n2nnc(C3=NNC(c4ccc(F)cc4)C3)c2C)cc1 (stereo not given)
Experimental Result: 33
--
Molecule: Cc1ccc(-n2nnc(C3=NN(C(=S)Nc4ccccc4)C(c4ccccc4)C3)c2C)cc1 (stereo not given)
Experimental Result: 8.25
--
Molecule: Cc1ccc(-n2nnc(C3=NN(c4nc(-c5ccccc5)cs4)C(c4ccc(F)cc4)C3)c2C)cc1 (stereo not given)
Experimental Result: 16.5
--
Molecule: O=C(O)c1cn(C2CC2)c2cc(N3CCNCC3)c(F)cc2c1=O
Experimental Result: 8.25
--
Molecule: Cc1ccc(-n2nnc(C(=O)/C=C/c3ccc(C#N)cc3)c2C)cc1
Experimental Result: 16.5

INPUT: Param item = Cc1ccc(-n2nnc(C3=NN(C(=S)Nc4ccccc4)C(c4ccc(F)cc4)C3)c2C)cc1 (stereo not given) ; retrieve measured MIC.
OUTPUT: 132

INPUT: Dear colleague, I am looking for the recorded MIC of the following molecule: Cc1ccc(-n2nnc(C(=O)/C=C/c3ccccc3)c2C)cc1
OUTPUT: 16.5

INPUT: Return reported MIC; argument: Cc1ccc(-n2nnc(C3=NN(c4nc(-c5ccc(Cl)cc5)cs4)C(c4ccc(F)cc4)C3)c2C)cc1 (stereo not given)
OUTPUT: 8.25

These data points were gathered from ChEMBL document CHEMBL2021863.
